- TESTED_ON: HIV Protease (Human immunodeficiency virus type 1 group M subtype B, UniProt P04585)
PROPERTY_MEASURED: IC50 (nM)

P: CC(C)(C)NC(=O)[C@H]1[C@H](C(=O)NC[C@@H](O)C[C@@H](Cc2ccccc2)C(=O)N[C@H]2c3ccccc3C[C@H]2O)[C@H]2C=C[C@@H]1C2 [B]
Q: O=C(N[C@H]1c2ccccc2C[C@H]1O)[C@H](Cc1ccccc1)C[C@H](O)CNC(=O)[C@H]1[C@H](C(=O)N(Cc2ccccc2)Cc2ccccc2)[C@@H]2C=C[C@H]1C2 [C]
R: O=C(N[C@H]1c2ccccc2C[C@H]1O)[C@H](Cc1ccccc1)C[C@H](O)CNC(=O)[C@H]1[C@H](C(=O)NCCc2ccccc2)[C@@H]2C=C[C@H]1C2 [A]
*Q* // sort listed items: IC50 descending Please respond by ranking the labels in the order requested.
*A* P, R, Q
(P: 82.8 nM, R: 0.055 nM, Q: 0.025 nM)
